Value source: the RNAGym collection of RNA variant scans (doi:10.7554/elife.80360)

B1: CPEB3 Ribozyme (parent)
chain: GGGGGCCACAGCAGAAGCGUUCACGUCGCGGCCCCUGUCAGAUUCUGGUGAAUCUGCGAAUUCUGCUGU

# Variants of: B1
# PROTOCOL_NOTES: self-cleavage, relative activity (ratio to wild type); higher = more cleavage; co-transcriptional
TEST_READOUT: self-cleavage
Numbers only.

Example results:
self-cleavage lookup needed for UGGGGCCACAGCAGAAGCGUUCACGUCGCGGCCCCUGUCAGAUUCUGGUGAAUCUGCGAACUCUGCUGU [G1U U61C] , thanks.
0.117

# self-cleavage lookup, item GGGGGCCACAGCAGAAGCGUUCACGUCGCGGCCCCUGUCAGAAUCUGGUGAAUCUGCGAAUUCUGCGGU [U43A U67G]
0.889

Give self-cleavage for each of the items listed below.
1. GGGGGCCACAGCAGAAGCGUUCACGUCGCGGCCCCUGUCAGAUUGUGGUGAAUCUGCGAAUUAUGCUGU [C45G C63A]
2. GGGGGCCACAGCAGAAGCGUUCACCUCGCGGCCCCCGUCAGAUUCUGGUGAAUCUGCGAAUUCUGCUGU [G25C U36C]
3. GGGGGCCACAGCAGAGGCGUUCACGUCGCGGCCCCUGGCAGAUUCUGGUGAAUCUGCGAAUUCUGCUGU [A16G U38G]
4. GGGGGCCACAGCAGAAGCGUUCACGUCGCGGCCCCUGUCAGAUUCUAGUGACUCUGCGAAUUCUGCUGU [G47A A52C]
5. GGGGGCCACUGCAGAAGCGUUCACGUCUCGGCCCCUGUCAGAUUCUGGUGAAUCUGCGAAUUCUGCUGU [A10U G28U]
6. GGGGGCCACAGCAGAAGCGUUCACGUCGCGGCCCCUGUCAGAUUUUGGUGAAUCUGCGAAUUCUGCGGU [C45U U67G]
7. GGGGGCCACAGCAGAAGCGUUCACGUCGCGGCGCCUGUCAGAUUCUGGUGAAUCUGCGAAUUCUGCGGU [C33G U67G]
8. GGGGGCCACAGCAGAAGCGUUCACUUCGCGGCCCCUGUCAGAUUCUGGUGAAUCUGCGGAUUCUGCUGU [G25U A59G]

[0.732, 0.24, 0.143, 0.993, 0.14, 1.02, 0.93, 0.174]

List self-cleavage for every entry below, keeping the order given.
1. GGGGGCCACAGCAGAAGCGUUCACGUCGCGGCCCCUGUCAGAUUCUGGAGAUUCUGCGAAUUCUGCUGU [U49A A52U]
2. GGGGUCCACAGCAGAAGCAUUCACGUCGCGGCCCCUGUCAGAUUCUGGUGAAUCUGCGAAUUCUGCUGU [G5U G19A]
3. GGGGGCCACAGCACAAGCGUUCACGUCGCGGCCCCUGUCAGAUUCUGGUGAAUCUGCGAACUCUGCUGU [G14C U61C]
4. GGGGGCCACAACAGAAGCGUUCACGUCGCGGCCGCUGUCAGAUUCUGGUGAAUCUGCGAAUUCUGCUGU [G11A C34G]
5. GGGGGCCACAGCAGAAGAGUUCACGUCGCGGCCCCUGUCAGAUUCUGGUGACUCUGCGAAUUCUGCUGU [C18A A52C]
6. GGGGGCCACAGCAGAGGCGUUCACGUCGCGGCCCCUGUCAGAUUCUGGUGAAUCUGCGAAUUCUGCAGU [A16G U67A]
7. GGGGACCACAGCAGAAGCGUUCACGUCGCGGCCCCUGUCAGAUUCUGGUGAAACUGCGAAUUCUGCUGU [G5A U53A]
8. GGGGGCCACAGGAGAAGCGUUCACCUCGCGGCCCCUGUCAGAUUCUGGUGAAUCUGCGAAUUCUGCUGU [C12G G25C]

1.02
0.06
0.241
0.695
0.152
0.907
0.74
0.166

For each entry beneath this line, provide reported self-cleavage.
1. GGGGGCCACAGCAGAAGCGUUCACGUCGCGGCCCCUGUCAGAUUUUGGUGAAUCUGCAAAUUCUGCUGU [C45U G58A]
2. GGGGGCCACAGCAGAAGCGUUCACGUGGCGGCCCCUGUCAGAUUCUGGUGAAUCUGCGAAUUCUGCUAU [C27G G68A]
3. GGGGGCCACAGCAGAAGCGUUCACGUCGCGGCCCCUGUCAGAUUCAGGUGAGUCUGCGAAUUCUGCUGU [U46A A52G]
4. GGGGGCCACAGCAGUAGCGUUCACGUCGCGGCCCCUGUCAGAUUCUGGUGAGUCUGCGAAUUCUGCUGU [A15U A52G]

[0.972, 0.228, 1.03, 0.939]
